Reported half-life is given for each of the following compounds.
experiment: In vivo pharmacokinetics assay in mice; conditions: mouse; male ICR mice, oral gavage 10 mg/kg, plasma
Enter your answer as a number in h; do not include the unit.

CNc1nc2ccccc2n1-c1nc(-c2c(C)nn(C3CCNCC3)c2C(F)(F)F)cc(N2CCOC[C@H]2C)n1 | 3.1

// next item, half-life requested
Exam item: Param item = Cc1nn(C2CCNCC2)c(C(F)(F)F)c1-c1cc(N2CCOC[C@H]2C)nc(-c2cc(F)cc3[nH]ccc23)n1 ; retrieve measured half-life.
Marked response: 3.9

----------
test system: TOV21G (ovarian cancer) cells; experiment: In vitro cell proliferation inhibition assay (CellTiter-Glo), TOV21G; assay type: cell-based, human; conditions: Homo sapiens, 120 hours
assay.readout: IC50

CNc1nc2ccccc2n1-c1nc(-c2c(C)nn(C3CCNCC3)c2C(F)(F)F)cc(N2CCOC[C@H]2C)n1 | 120 nM

Could you now consider this next molecule?
Exam item: Bench note: what IC50 did COc1c(-c2cc(N3CCOC[C@H]3C)nc(-c3ccnc4[nH]ccc34)n2)c(C(F)(F)F)nn1C1CCN(C)CC1 show?
Marked response: 1200 nM
